Target: 5-HT reuptake (Rattus norvegicus)
Construct: results from cortex), crude synaptosomes
Sequence (P31652 whole entry): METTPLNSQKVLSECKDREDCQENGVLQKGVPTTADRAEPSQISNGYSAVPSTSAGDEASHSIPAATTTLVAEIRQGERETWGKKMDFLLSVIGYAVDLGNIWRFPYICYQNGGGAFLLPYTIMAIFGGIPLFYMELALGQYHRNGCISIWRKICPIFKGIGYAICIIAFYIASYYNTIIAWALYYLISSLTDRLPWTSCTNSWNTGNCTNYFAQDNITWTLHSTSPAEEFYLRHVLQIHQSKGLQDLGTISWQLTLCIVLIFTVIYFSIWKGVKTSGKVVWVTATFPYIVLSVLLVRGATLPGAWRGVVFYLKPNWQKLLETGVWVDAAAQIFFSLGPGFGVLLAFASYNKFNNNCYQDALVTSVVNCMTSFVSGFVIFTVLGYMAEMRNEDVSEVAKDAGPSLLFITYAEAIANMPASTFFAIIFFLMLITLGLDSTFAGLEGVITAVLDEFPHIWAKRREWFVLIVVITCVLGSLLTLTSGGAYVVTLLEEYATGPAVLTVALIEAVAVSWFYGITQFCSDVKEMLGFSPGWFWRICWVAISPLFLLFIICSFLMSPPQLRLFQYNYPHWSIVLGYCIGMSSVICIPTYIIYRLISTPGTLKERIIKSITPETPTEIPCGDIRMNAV
Assay: 5-HT reuptake inhibition in crudely produced rat synaptosomes ([3H]-5-HT)
Settings: [3H]-5-HT 20.3 nM, read-out: IC50 of 5-HT reuptake inhibition in rat brain
endpoint: IC50 (nM)
Hi! Could you send only the number? It should be in nM, unit omitted.

Which measured IC50 value corresponds to O=c1ccccn1CC1(O)CCN(Cc2ccccc2)CC1 [Compound 1] ?
8.51

---

Biological target: 5-HT1A receptor (Rattus norvegicus, UniProt P19327)
Sequence (P19327 whole entry): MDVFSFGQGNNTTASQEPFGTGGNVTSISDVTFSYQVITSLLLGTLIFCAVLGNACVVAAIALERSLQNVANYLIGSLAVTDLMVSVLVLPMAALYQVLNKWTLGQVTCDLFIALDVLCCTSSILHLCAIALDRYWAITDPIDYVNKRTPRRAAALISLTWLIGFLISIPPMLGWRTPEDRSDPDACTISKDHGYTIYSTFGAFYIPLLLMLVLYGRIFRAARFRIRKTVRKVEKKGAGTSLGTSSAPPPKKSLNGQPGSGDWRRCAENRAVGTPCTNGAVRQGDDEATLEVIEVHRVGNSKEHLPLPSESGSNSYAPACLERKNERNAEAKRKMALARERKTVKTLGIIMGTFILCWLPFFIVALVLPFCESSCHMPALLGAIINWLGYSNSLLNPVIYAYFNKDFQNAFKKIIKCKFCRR
endpoint: pKi
Scale for pKi: -log10 of concentration given in mol/L; no unit attached.

Item O=c1ccccn1CC1(O)CCN(Cc2ccccc2)CC1 has what recorded pKi?
9.36

All figures here come from patent US8921563B2.
